The reported measurements were obtained from patent US20230357271A1.

- tgt: human IRAK-4 (Homo sapiens (Human), UniProt Q9NWZ3)
- Sequence (Q9NWZ3 whole entry): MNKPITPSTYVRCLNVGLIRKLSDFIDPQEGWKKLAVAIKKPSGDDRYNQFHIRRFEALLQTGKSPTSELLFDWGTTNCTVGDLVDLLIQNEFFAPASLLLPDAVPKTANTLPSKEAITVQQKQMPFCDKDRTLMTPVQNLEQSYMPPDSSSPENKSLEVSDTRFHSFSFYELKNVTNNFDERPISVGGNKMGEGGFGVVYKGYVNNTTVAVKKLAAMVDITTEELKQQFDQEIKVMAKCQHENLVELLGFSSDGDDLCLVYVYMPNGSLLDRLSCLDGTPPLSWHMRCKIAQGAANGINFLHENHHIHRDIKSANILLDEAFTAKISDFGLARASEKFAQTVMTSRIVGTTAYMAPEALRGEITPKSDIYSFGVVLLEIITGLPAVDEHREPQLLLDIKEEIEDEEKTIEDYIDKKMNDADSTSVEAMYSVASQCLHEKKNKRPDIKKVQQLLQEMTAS
- procedure_details: Measurement of human IRAK-4 inhibitory activity (TR-FRET)
- Type: biochemical
- measurement_context: 1 nM IRAK-4, 0.5 µM peptide substrate, 10 µM ATP, 23° C., 30 minutes
- Experimental: For the measurement of the activity of the human IRAK-4 (Invitrogen, Cat. PV3362), phosphorylation of the IRAK-4 peptide substrate (biotin-KKKKRFSFKKSFKC) by the enzyme in the presence of 10 µM ATP (Sigma-Aldrich, Cat. A7699) was measured by the TR-FRET method. […] Fluorescence intensity was measured at wavelengths of 665 nm and 620 nm with a microplate reader, and the enzymatic activity was calculated as the ratio of fluorescence intensities at 665 nm and 620 nm (665 nm/620 nm). […]
Provide the recorded IC50 for the entries that follow.
Answers are plain numbers, in nM.

Items follow; give IC50 for each.
1. Cc1ncc(-c2ccc3ncc4cc3c2/C=C/CCNC(=O)[C@@H]2CC(CC(C)N2C)N4)cn1 (stereo in doubt) [a-02-17]
2. CCCOCc1ncc(-c2ccc3ncc4cc3c2CCCCNC(=O)[C@@H]2C[C@H](CCN2C)N4)cn1 [a-02-24]
3. Cc1ncc(-c2ccc3ncc4cc3c2OCCCOC(=O)[C@@H]2C[C@H](CCN2C)N4)cn1 [a-02-20]
4. Cc1ncc(-c2ccc3ncc4nc3c2OCC(F)CNC(=O)[C@@H]2C[C@H](CCN2C)N4)cn1 (stereo partly shown) [a-01-41]

1.76
13.2
3.21
10

Quick batch: IC50 for everything below.
1. CCCOCc1ncc(-c2ccc3ncc4nc3c2OCCCNC(=O)[C@@H]2C[C@H](CCN2CC)N4)cn1 [a-01-35]
2. CN1CC[C@H]2C[C@H]1C(=O)NCC1(CC1)COc1c(-c3cncnc3)ccc3ncc(nc13)N2 [a-01-03]
3. CCCOCc1ncc(-c2ccc3ncc4nc3c2OCC(F)CNC(=O)[C@@H]2C[C@H](CCN2C)N4)cn1 (stereo partly shown) [a-01-26]
4. Cc1ncc(-c2ccc3ncc4cc3c2OCC(F)CNC(=O)[C@@H]2C[C@H](CCN2C(C)C)N4)cn1 (stereo partly shown) [a-02-13]
5. CN1CC[C@H]2C[C@H]1C(=O)NCCCOc1c(-c3ccns3)ccc3ncc(nc13)N2 [a-01-01]
6. Cc1ncc(-c2ccc3ncc4cc3c2OCC2(CC2)COC(=O)[C@@H]2C[C@H](CCN2C)N4)cn1 [a-02-19]
7. [2H]C([2H])([2H])N1CC[C@H]2C[C@H]1C(=O)NCC(F)COc1c(-c3cnc(COCCC)nc3)ccc3ncc(cc13)N2 (stereo partly shown) [a-02-06]

2.84
2.11
1.41
1.12
1.63
3.9
2

Quick request: IC50 for each listed item, please.
1. Cc1ncc(-c2ccc3ncc4nc3c2OCCCNC(=O)[C@@H]2C[C@H](CCN2C)N4)cn1 [a-01-24]
2. CCCOCc1ncc(-c2ccc3ncc4cc3c2OCC(F)CNC(=O)[C@@H]2C[C@H](CCN2C)N4)cn1 (stereo partly shown) [a-02-02]
3. CCCOCc1ncc(-c2ccc3ncc4nc3c2OCCC(C)CNC(=O)[C@@H]2C[C@H](CCN2C)N4)cn1 (stereo partly shown) [a-01-12]
4. Cc1ncc(-c2ccc3ncc4cc3c2OCC(F)CNC(=O)C2(C)CC(CCN2C)N4)cn1 (stereo not shown) [a-02-23]
5. Cc1ncc(-c2ccc3ncc4cc3c2OCCCOC(=O)C2CC(CC(C)N2C)N4)cn1 (stereo not shown) [a-02-07]
6. CCC(O)COCc1ncc(-c2ccc3ncc4nc3c2OCCCNC(=O)[C@@H]2C[C@H](CCN2C)N4)cn1 (stereo partly shown) [a-01-17]
7. CN1CC[C@H]2C[C@H]1C(=O)NCCCCOc1c(-c3cncnc3)ccc3ncc(nc13)N2 [a-01-30]
8. CN1CC[C@H]2C[C@H]1C(=O)NCCCOc1c(-c3cnsc3)ccc3ncc(nc13)N2 [a-01-14]

[2.48, 1.09, 1.75, 9.7, 2.04, 3.04, 2.8, 1.73]
